Hey, just so you know, these numbers are from patent US10662193B2.

For each record, write down the corresponding Kd.
- target: UniProt P10636
- test_protocol: Assay 3: backscattering interferometry, dissociation constants (Kd)
- Assay type: binding
- experimental_context: PHF batch 7 (parietal cortex, one AD patient); read-out: [Kd] on PHF batch 7

Please give the measured Kd for this compound: Cn1c2ccncc2c2ccc(Nc3cc(F)ccn3)nc21 260 nM

Please give the measured Kd for this compound: Cn1c2ccncc2c2ccc(N3CCC[C@@H](F)C3)nc21 120 nM

Please give the measured Kd for this compound: Cn1c2ccncc2c2ccc(N3CC4(CC(F)C4)C3)nc21 40 nM

Please give the measured Kd for this compound: Cn1c2ccncc2c2ccc(N3CCN(CCF)CC3)nc21 160 nM

Please give the measured Kd for this compound: Cn1c2ccncc2c2ccc(Nc3ccnc(F)c3)nc21 11 nM

Please give the measured Kd for this compound: Cn1c2ccncc2c2ccc(N3CC4(CC(OCCF)C4)C3)nc21 270 nM

Please give the measured Kd for this compound: Cn1c2ccncc2c2ccc(N3[C@@H]4CC[C@H]3C[C@H](F)C4)nc21 170 nM

Please give the measured Kd for this compound: Cn1c2ccncc2c2ccc(Nc3cccc(F)n3)nc21 400 nM

====

- Test system: tau tangles on AD brain section
- test_protocol: Assay 1: displacement of RefA on human AD brain sections (fluorescence)
- Type: binding
- experimental_context: 1 μM RefA vs. 250 μM compound
Classification field: enter Criterion met for Competition on AD brain section tau tangles (1 μM RefA vs. 250 μM compound) values not below 80%, Criterion not met for values below it.

Assess whether reported Competition on AD brain section tau tangles (1 μM RefA vs. 250 μM compound) for Cn1c2ccncc2c2ccc(Nc3cccc(N4CCOCC4)c3F)nc21 [Example 12] sits at 80% or higher. Criterion met

Assess whether reported Competition on AD brain section tau tangles (1 μM RefA vs. 250 μM compound) for CN1CCc2c(c3ccc(Nc4ccc5ncn(C)c5c4)nc3n2C)C1=O [Example 172] sits at 80% or higher. Criterion not met

Assess whether reported Competition on AD brain section tau tangles (1 μM RefA vs. 250 μM compound) for Cn1c2ccncc2c2ccc(Nc3cccc(OCCF)n3)nc21 [Example 44] sits at 80% or higher. Criterion met

Assess whether reported Competition on AD brain section tau tangles (1 μM RefA vs. 250 μM compound) for Cn1c2ccncc2c2ccc(Nc3cccc(N4CCOCC4)c3)nc21 [Example 1] sits at 80% or higher. Criterion met

Assess whether reported Competition on AD brain section tau tangles (1 μM RefA vs. 250 μM compound) for Cn1c2ccncc2c2ccc(Nc3cccc(NCCF)n3)nc21 [Example 78] sits at 80% or higher. Criterion met

Assess whether reported Competition on AD brain section tau tangles (1 μM RefA vs. 250 μM compound) for Cn1c2ccncc2c2ccc(Nc3cccc(OC(F)F)c3)nc21 [Example 4] sits at 80% or higher. Criterion met

Assess whether reported Competition on AD brain section tau tangles (1 μM RefA vs. 250 μM compound) for Cn1c2ccncc2c2ccc(N3CCOC[C@H]3CF)nc21 [Example 150] sits at 80% or higher. Criterion not met

Assess whether reported Competition on AD brain section tau tangles (1 μM RefA vs. 250 μM compound) for Cn1c2ccncc2c2ccc(Nc3ccc(F)c(F)c3)nc21 [Example 2] sits at 80% or higher. Criterion met

Assess whether reported Competition on AD brain section tau tangles (1 μM RefA vs. 250 μM compound) for Cn1c2ccncc2c2ccc(N3CCC(CCF)CC3)nc21 [Example 151] sits at 80% or higher. Criterion met

Assess whether reported Competition on AD brain section tau tangles (1 μM RefA vs. 250 μM compound) for Cn1c2ccncc2c2ccc(Nc3ccc(OC(F)F)cc3)nc21 [Example 9] sits at 80% or higher. Criterion met

Assess whether reported Competition on AD brain section tau tangles (1 μM RefA vs. 250 μM compound) for Cn1c2ccncc2c2ccc(Nc3ccc(F)cc3N3CCOCC3)nc21 [Example 5] sits at 80% or higher. Criterion not met

Assess whether reported Competition on AD brain section tau tangles (1 μM RefA vs. 250 μM compound) for Cn1c2ccncc2c2ccc(Nc3cnn(CCF)c3)nc21 [Example 40] sits at 80% or higher. Criterion met

Assess whether reported Competition on AD brain section tau tangles (1 μM RefA vs. 250 μM compound) for Cn1c2ccncc2c2ccc(Nc3ccnn3CCF)nc21 [Example 46] sits at 80% or higher. Criterion not met

Assess whether reported Competition on AD brain section tau tangles (1 μM RefA vs. 250 μM compound) for Cn1c2ccncc2c2ccc(Nc3ccn(CCF)n3)nc21 [Example 47] sits at 80% or higher. Criterion met

Assess whether reported Competition on AD brain section tau tangles (1 μM RefA vs. 250 μM compound) for Cn1c2ccncc2c2ccc(N3CCC(F)CC3)nc21 [Example 161] sits at 80% or higher. Criterion met

Assess whether reported Competition on AD brain section tau tangles (1 μM RefA vs. 250 μM compound) for Cn1c2ccncc2c2ccc(N3CCC(CCOCCF)CC3)nc21 [Example 155] sits at 80% or higher. Criterion met

Assess whether reported Competition on AD brain section tau tangles (1 μM RefA vs. 250 μM compound) for Cn1c2ccncc2c2ccc(N3CCC(OCCF)CC3)nc21 [Example 156] sits at 80% or higher. Criterion not met

Assess whether reported Competition on AD brain section tau tangles (1 μM RefA vs. 250 μM compound) for CN1CCc2c(c3ccc(Nc4ccc5c(c4)OCO5)nc3n2C)C1=O [Example 170] sits at 80% or higher. Criterion not met

Assess whether reported Competition on AD brain section tau tangles (1 μM RefA vs. 250 μM compound) for Cn1c2ccncc2c2ccc(Nc3cnn(CCCCF)c3)nc21 [Example 45] sits at 80% or higher. Criterion not met

Assess whether reported Competition on AD brain section tau tangles (1 μM RefA vs. 250 μM compound) for Cn1c2ccncc2c2ccc(Nc3cc(F)cc(N4CCOCC4)c3)nc21 [Example 7] sits at 80% or higher. Criterion met

Assess whether reported Competition on AD brain section tau tangles (1 μM RefA vs. 250 μM compound) for Cn1c2ccncc2c2ccc(Nc3cccc(OCCF)c3)nc21 [Example 8] sits at 80% or higher. Criterion met

Assess whether reported Competition on AD brain section tau tangles (1 μM RefA vs. 250 μM compound) for CN1CCc2c(c3ccc(Nc4ccc(F)cc4N4CCOCC4)nc3n2C)C1=O [Example 175] sits at 80% or higher. Criterion not met

====

- System: human brain slices from the frontal and/or temporal lobes of AD patients
- test_protocol: Autoradiography with 18F-labeled compounds using human brain tissue
- Type: binding
- experimental_context: blocking compound 10 μM, FIG. 14
recorded_endpoint: competition with corresponding cold compound

Worked cases, answers included:
INSERT INTO assay_data (molecule, target, readout_value) VALUES
  ('Cn1c2ccncc2c2ccc(N3CCC(OCC[18F])CC3)nc21 [^18F-156]', 'human brain slices from the frontal and/or temporal lobes of AD patients', 'Competition observed'),
  ('Cn1c2ccncc2c2ccc(N3CCC(OCCOCC[18F])CC3)nc21 [^18F-152]', 'human brain slices from the frontal and/or temporal lobes of AD patients', 'Competition observed'),
  ('Cn1c2ccncc2c2ccc(N3CCN(CC[18F])CC3)nc21 [^18F-168]', 'human brain slices from the frontal and/or temporal lobes of AD patients', 'Competition observed'),
  ('Cn1c2ccncc2c2ccc(N3CC[C@H]([18F])C3)nc21 [^18F-160]', 'human brain slices from the frontal and/or temporal lobes of AD patients', 'Competition observed');

Please give the measured competition with corresponding cold compound for this molecule: Cn1c2ccncc2c2ccc(N3CCC([18F])CC3)nc21 [^18F-161] Competition observed

====

- Test system: human brain slices from the frontal and/or temporal lobes of AD patients
- test_protocol: Autoradiography with 18F-labeled compounds using human brain tissue
- Type: binding
- experimental_context: block with an amyloid binding compound, FIG. 14
recorded_endpoint: competition with amyloid binding compound

Worked cases, answers included:
INSERT INTO assay_data (compound, readout_value) VALUES
  ('Cn1c2ccncc2c2ccc(N3CCC(OCCOCC[18F])CC3)nc21 [^18F-152]', 'no competition'),
  ('Cn1c2ccncc2c2ccc(N3CC[C@H]([18F])C3)nc21 [^18F-160]', 'no competition'),
  ('Cn1c2ccncc2c2ccc(N3CCN(CC[18F])CC3)nc21 [^18F-168]', 'no competition'),
  ('Cn1c2ccncc2c2ccc(N3CCC(OCC[18F])CC3)nc21 [^18F-156]', 'no competition');

Please give the measured competition with amyloid binding compound for this compound: Cn1c2ccncc2c2ccc(N3CCC([18F])CC3)nc21 [^18F-161] no competition

====

- target: Tau enriched paired helical filaments (PHF) from human Alzheimer's disease (AD) brains (Homo sapiens, UniProt P10636)
- Sequence (P10636 623-708 limits assumed): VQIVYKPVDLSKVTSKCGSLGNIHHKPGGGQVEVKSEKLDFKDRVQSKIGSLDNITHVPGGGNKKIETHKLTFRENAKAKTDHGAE
- test_protocol: Assay 3: backscattering interferometry, dissociation constants (Kd)
- Type: binding
- experimental_context: PHF batch 6 (pooled frontal cortex, 25 AD patients); read-out: [Kd] on PHF batch 6
For each record, write down the corresponding pKd.
// scale note: pKd = -log10(conc_M); give the bare number

Please give the measured pKd for this compound: Cn1c2ccncc2c2ccc(Nc3cccc(OCCF)c3)nc21 7.72

Please give the measured pKd for this compound: Cn1c2ccncc2c2ccc(Nc3cc(OCCF)ccn3)nc21 7.70

Please give the measured pKd for this compound: Cn1c2c(c3ccc(Nc4ccc(F)c(OCCF)c4)nc31)C(=O)NCC2 7.12

Please give the measured pKd for this compound: Cn1c2ccncc2c2ccc(N3CC4(CC(OCCOCCOCCF)C4)C3)nc21 7.70

Please give the measured pKd for this compound: Cn1c2ccncc2c2ccc(N3CCC(OCCF)CC3)nc21 7.59

Please give the measured pKd for this compound: Cn1c2ccncc2c2ccc(Nc3ccc(F)c(F)c3)nc21 7.48

Please give the measured pKd for this compound: CN1CCc2c(c3ccc(Nc4cccc(OCCF)c4)nc3n2C)C1=O 7.80

Please give the measured pKd for this compound: Cn1c2ccncc2c2ccc(Nc3ccnc(F)c3)nc21 7.42

Please give the measured pKd for this compound: Cn1c2c(c3ccc(Nc4cccc(OCCF)c4)nc31)C(=O)NCC2 [drawing 1063] 7.34

Please give the measured pKd for this compound: Cn1c2ccncc2c2ccc(N3CCC(F)CC3)nc21 7.74

Please give the measured pKd for this compound: Cn1c2cc[nH]c(=O)c2c2ccc(Nc3cccc(OCCF)c3)nc21 7.00
